binding signal listing for selected binders.
- Test Target: zif268 DBD wild type (RE) (UniProt P08046 331-420)
- Test Name: competition EMSA (QuMFRA); 30 mM Tris-HCl pH 8.0, 50 mM NaCl, 0.1 mg/ml BSA, 3 mM DTT, 20 uM ZnSO4, 5 ug/ml poly(dI-dC), 1 h on ice; 10% polyacrylamide gel

Some solved cases for reference:
>  <Binder>
Zif_2 (CA) (dsDNA) DNA 1: TCGAGGTCGACGGTATCGCGTGGGCACTCCACTAGTTCTAGAGCGGCCGCCAC DNA 2: GTGGCGGCCGCTCTAGAACTAGTGGAGTGCCCACGCGATACCGTCGACCTCGA

>  <binding signal>
0.27 Ka relative to CG

$$$$
>  <Binder>
Zif_5 (AA) (dsDNA) DNA 1: TCGAGGTCGACGGTATCGCGTGGGAACTCCACTAGTTCTAGAGCGGCCGCCAC DNA 2: GTGGCGGCCGCTCTAGAACTAGTGGAGTTCCCACGCGATACCGTCGACCTCGA

>  <binding signal>
0.064 Ka relative to CG

$$$$
>  <Binder>
Zif_4 (AG) (dsDNA) DNA 1: TCGAGGTCGACGGTATCGCGTGGGAGCTCCACTAGTTCTAGAGCGGCCGCCAC DNA 2: GTGGCGGCCGCTCTAGAACTAGTGGAGCTCCCACGCGATACCGTCGACCTCGA

>  <binding signal>
0.15 Ka relative to CG

$$$$
>  <Binder>
Zif_3 (CC) (dsDNA) DNA 1: TCGAGGTCGACGGTATCGCGTGGGCCCTCCACTAGTTCTAGAGCGGCCGCCAC DNA 2: GTGGCGGCCGCTCTAGAACTAGTGGAGGGCCCACGCGATACCGTCGACCTCGA

>  <binding signal>
0.082 Ka relative to CG

$$$$

Now let's try a different one.
Query: Give the measured binding signal of Zif_6 (AC) (dsDNA) DNA 1: TCGAGGTCGACGGTATCGCGTGGGACCTCCACTAGTTCTAGAGCGGCCGCCAC DNA 2: GTGGCGGCCGCTCTAGAACTAGTGGAGGTCCCACGCGATACCGTCGACCTCGA .
Response: 0.041 Ka relative to CG
